Item-by-item account of IC50
- Target Of Assay: Hypoxia-inducible factor 1-alpha (Homo sapiens)
- Experiment Notes: HIF-2a and HIF-1a reporter inhibition panel, dose response, selectivity assay for HIF-2a inhibitor project, cell-based, luminescence (AID 651581)
- Measurement Parameters: HIF-1a, run 2
Assay Metric: IC50 (µM)

Chem Smiles | Bound Sign | Assay Value
COc1ccc(OCc2cccc(C(=O)Nn3cc([N+](=O)[O-])cn3)c2)cc1 | < | 30
COc1ccc(OCc2cccc(C(=O)Nc3cc(C)on3)c2)cc1 | > | 99
Cc1ccc(NC(=O)c2cc(N3C(=O)C=CC3=O)ccc2N2CCOCC2)cc1Cl | = | 39.3
COc1ccc(OCc2cccc(C(=O)NN)c2)cc1 | > | 99
Cc1nc2cc(-c3cccc(F)c3)nn2c(C)c1CCC(=O)N1CCC2(CC1)OCCO2 | = | 56.2
CCOC(=O)C1CCN(Cc2cc(=O)oc3c(C)c(C)ccc23)CC1 | = | 25.9
COc1ccc(OC)c(S(=O)(=O)ON2C(=O)c3ccccc3C2=O)c1 | > | 99
O=C(Nc1ccc(F)cc1)c1nc(S(=O)(=O)Cc2ccccc2)ncc1Cl | = | 16.7
S=C(c1ccc(-c2ccccc2)cc1)N1CCOCC1 | = | 2.53
COC(=O)c1cccc(NC(=O)NC(=O)c2ccccc2Cl)c1 | > | 99
Cc1ccc(S(=O)(=O)Nc2cccc3cccnc23)cc1 | > | 99

====

- Target Of Assay: Endothelial PAS domain-containing protein 1 (Homo sapiens) (UniProt Q99814)
- Experiment Notes: HIF-2a and HIF-1a reporter inhibition panel, dose response, selectivity assay for HIF-2a inhibitor project, cell-based, luminescence (AID 651581)
- Measurement Parameters: HIF-2a PANC, mean of runs
Activity calls are given as the source filed them. The rule behind the calls is not given here.
Classes used: 1 (active), 0 (inactive)

Chem Smiles | Cat
Cc1cccc(NC(=S)NNc2ncc(C(F)(F)F)cc2Cl)c1 | 1
N#Cc1ccccc1COc1ccc(/C=C/C(=O)O)cc1 | 1
O=C(O)c1cccc(-c2nnn(Cc3ccccc3Cl)n2)c1 | 0
COCCn1c(C)cc(C(=O)CSc2nnc3ccccn23)c1C | 0
CCOC(=O)Cc1csc(NC(=S)NC(=O)c2ccc([N+](=O)[O-])cc2)n1 | 0
COC(=O)CSc1nnc(-c2sc3ccccc3c2Cl)o1 | 1
CCOC(=O)Cn1cc(/C=C/[N+](=O)[O-])c2ccccc21 | 0
COC(=O)c1ccc(C(=O)OC)c(-n2c(=O)c3ccccc3c3ccccc3c2=O)c1 | 0
Cc1cc(C)c(C)c(S(=O)(=O)ON2C(=O)c3ccccc3C2=O)c1C | 0
Cc1ccc(C(=O)c2cccc(N)c2)cc1C | 0
Nc1ccc(-c2ncc(-c3ccccc3)o2)cc1 | 1
Cc1c(CCC(=O)N2CCC(C(=O)O)(c3ccccc3)CC2)c(=O)oc2cc3oc4c(c3cc12)CCCC4 | 1
C/C(=N\OCc1cccc(C(=O)O)c1)c1ccc(Cl)cc1 | 0
Cc1c(CCC(=O)N[C@@H](CC(C)C)C(=O)O)c(=O)oc2cc3oc4c(c3cc12)CCCC4 | 1
CC(=O)c1ccc(NC(=O)c2cnn3ccccc23)cc1 | 1
Cc1ccc(S(=O)(=O)Nc2cccc3cccnc23)c([N+](=O)[O-])c1 | 0
CCCCOC(=O)c1ccc(NC(=S)NC(=O)c2c(Br)c(C)nn2C)cc1 | 0
CC(=O)Nc1ccc(OS(=O)(=O)c2ccc(C)cc2C)cc1 | 1
Cc1c(CCC(=O)N2CCC[C@H]2C(=O)O)c(=O)oc2c(C)c3oc4c(c3cc12)CCCC4 | 1
COc1ccc(OCc2cccc(C(=O)NN)c2)cc1 | 0
O=C(Nc1ccc(NC(=O)c2cccs2)cc1)c1ccc2c(c1)OCCO2 | 1
N#C/C(=C\c1ccccc1)C(=O)N(c1ccccn1)C1CCCCC1 | 0
COc1cc(/C=C/[N+](=O)[O-])ccc1O | 0

Ref: PubChem BioAssay AID651581
